Reference source: the supplement of paper PMC10065799

Below is a list of entries, each paired with its recorded phosphorylation enrichment value.
# testSystem: Hck (UniProt P08631)
# Sequence (P08631 whole entry, looked up): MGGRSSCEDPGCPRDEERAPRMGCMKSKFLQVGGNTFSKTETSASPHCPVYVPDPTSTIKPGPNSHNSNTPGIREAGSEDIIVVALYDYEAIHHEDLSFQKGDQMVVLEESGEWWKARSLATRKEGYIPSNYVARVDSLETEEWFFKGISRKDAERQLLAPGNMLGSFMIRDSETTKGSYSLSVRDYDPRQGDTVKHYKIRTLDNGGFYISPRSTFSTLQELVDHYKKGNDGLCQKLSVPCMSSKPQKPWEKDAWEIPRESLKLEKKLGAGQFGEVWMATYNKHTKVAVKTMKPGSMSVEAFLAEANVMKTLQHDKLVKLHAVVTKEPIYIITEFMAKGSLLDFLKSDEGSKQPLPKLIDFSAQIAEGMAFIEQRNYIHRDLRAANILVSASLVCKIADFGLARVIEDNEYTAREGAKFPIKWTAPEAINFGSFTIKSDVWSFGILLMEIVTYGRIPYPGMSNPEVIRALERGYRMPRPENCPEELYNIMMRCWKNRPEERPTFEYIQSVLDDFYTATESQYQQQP
# measurementDescription: phosphorylation enrichment, bacterial display (enrichment ratio); higher = better substrate or ligand; peptides without Tyr show the background;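 further: 11-residue human phosphosite peptides and single-mutation variants displayed on the E. coli surface, counted by deep sequencing, each peptide's frequency after selection divided by its frequency in the unselected input library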;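 further: frequency after pTyr selection over input frequency; kinase dosed for 20-30% of maximal phosphorylation in three min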

| sequenceEntry | phosphorylation enrichment |
| --- | --- |
| LLVVLYKFRCF [PSEN1_Y154_Y159F_YF] | 0.622 |
| NKEAICSGFIR [SMCHD1_Y283_Y283C_YF] | 0.501 |
| FVGGFYGGCNE [CTSC_Y352_YF] | 1.02 |
| GDPTEYFSTAI [IGSF22_Y501_YF] | 0.498 |
| TRSYKYLLLSM [NF1_Y491] | 0.422 |
| EAIAKYDFKAT [GRB2_Y7] | 0.387 |
| RLLRGHDQSAF [HLA-C_Y137_Y137H_YF] | 0.566 |
| WIPNQYPIISE [NOG_Y222_I220N] | 0.465 |
| FRAVKYLQMVG [AVPR2_Y117_C112Y_YF] | 0.319 |
| TTKAKYKTPIF [PLD2_Y573_T577I_YF] | 0.411 |
| HVKHNYECLVF [XRCC5_Y416_I412V_YF] | 0.581 |
| FSQQTYYRVSN [ABCD1_Y180] | 3.2 |
| SSNLYYRCLTA [CNGA3_Y169_W171C] | 0.807 |
| IMITDYLLLFR [INSR_Y87] | 0.502 |
| YADGVYQALEE [DUOX2_Y70] | 3.86 |
| SKHHLYSDLQT [PTCHD1_Y84_R82H] | 0.985 |
| LPVHFYSHVEH [PYGM_Y204_G205S] | 0.852 |
| QYNPEYVQQAS [LRRC7_Y1058_H1054Y] | 0.831 |
| LIFTNYEAGKD [GSTP1_Y112_YF] | 0.582 |
| WAMPAYNRSKL [WWOX_Y293_L291P] | 0.263 |
| ATHSRYRLNDY [CLDN14_Y233_G232R] | 0.505 |
| PVQAAYQKVVA [HBB_Y131] | 0.505 |
| RLLVVYPSTQR [HBB_Y36_W38S] | 1.17 |
| GEDEPYAEPYA [APBA1_Y183_S184A] | 0.544 |
| RRIHSHRGHLW [VHL_Y112_Y112H] | 0.737 |
| RESVSYLFSHV [PRPS1_Y311_G306R] | 0.549 |
| FSKTQYNQVPR [CXADR_Y318_S323R_YF] | 0.457 |
| RLGVTYEQALA [MAP2_Y996_G991R] | 0.56 |
| FLTQHHDAKPQ [ANG_Y38_Y38H] | 0.353 |
| ARSHIYTLASC [MEFV_Y741_F743L] | 0.95 |
| WDLTDYLMKIL [ACTB_Y188_R183W] | 0.611 |
| KLADMYGGGED [CDH1_Y876] | 0.463 |
| TLMNAYSSCSH [KIF11_Y231_R234C] | 0.557 |
| ACCLLYHGDVV [TUBA4A_Y319_R320H] | 0.632 |
| ANRNVYEVEPT [MEGF10_Y1075] | 0.842 |
| ACDALYPPGPP | 0.391 |
| FTFTSYFMHWV [IGHV1-46_Y51_YF] | 0.451 |
| AMCVCYDGVEV [ADAMTSL2_Y594_R593C] | 0.655 |
| RIDRKYKKVRF [F8_Y442_G439D] | 1.05 |
| CDKEYYSVHNK [MET_Y1235_Y1230C] | 0.788 |
| EDKFMYLEFPQ [PTEN_Y240_F241L] | 1.01 |
| VVKLTYNENDN [CAMKK2_Y183_A182T] | 0.5 |
| HHTDECEYDEL [TGM1_Y134_Y134C] | 0.667 |
| TDLAYYLVCKG [ASL_Y376_R379C] | 0.75 |
| FVFSFYHAFSG [ACTN4_Y265_S262F_YF] | 0.525 |
| PGPPGYCDSSH [COL12A1_Y3043_Q3048H] | 1.58 |
| GADDSYYTARS [ZAP70_Y492] | 0.737 |
| MKALGYFAVVK [OPA1_Y498_T503K] | 0.48 |
| GSQERDFELVE [TSC2_Y407_Y407D] | 0.493 |
| QSRSPYSSRHS [CDK13_Y415_R410Q] | 0.593 |
| PLKFLYPNIDK [STAT1_Y668_YF] | 1.09 |
| RLLVVYPWTQK [HBG1_Y36_R41K] | 0.547 |
| RKMSSYAFFVQ [HMGB1_Y16_G11R] | 0.466 |
| GVLKEYGVKVL [CPS1_Y529] | 0.431 |
| TLARLYHRDST [LRIG1_Y1029_P1031R] | 0.409 |
| NRKGKYFNVER [ANAPC4_Y469] | 0.695 |
| MSSLYYANALF [HOXB7_Y6_T9A] | 6.04 |

* * *

The following sequences are listed with their measured phosphorylation enrichment values.
# testSystem: Hck (UniProt P08631)
# measurementDescription: phosphorylation enrichment, bacterial display (enrichment ratio); higher = better substrate or ligand; peptides without Tyr show the background

| sequenceEntry | phosphorylation enrichment |
| --- | --- |
| REETTYLPLTS [ICAM3_Y527_S525T] | 1.7 |
| HFPFQCHRQLY [F12_Y53_Y53C] | 0.681 |
| KYLENYYDLEK [MMP3_Y41_K45E] | 1.83 |
| PVLSLYASGRT [ACTA1_Y145_A140P] | 0.768 |
| PAIFTYDEFKK [COL8A2_Y648_T645I_YF] | 1.66 |
| VIKSSYQVAKA [CPT1B_Y534_E531K] | 0.391 |
| PFSSPYENSLI [EPOR_Y489_N487S_YF] | 1.21 |
| LIDGFYRLTED [JAK2_Y373_A377E_YF] | 0.552 |
| EFHRLYEEFTR [PIK3R1_Y467_D464H_YF] | 7.49 |
| GRDQPYSGTGD [TYRO3_Y828_A831T] | 0.481 |
| GAVDTYCRHNY [HLA-DRB1_Y107_A102G] | 0.475 |
| QEKKGYFEDRC [GLUL_Y336_R341C] | 0.655 |
| PQGVRYTYTID [DCX_Y103_I104T] | 0.601 |

* * *

# Tested on: AncSZ
# measurementDescription: phosphorylation enrichment, bacterial display (enrichment ratio); higher = better substrate or ligand; peptides without Tyr show the background

| sequenceEntry | phosphorylation enrichment |
| --- | --- |
| HLEKKYVHRDS [CSF1R_Y708_R710H] | 0.615 |
| QMQNPYSRHSS [MUC13_Y501] | 0.521 |
| PEFINYHQHNS [BTK_Y361_L358F] | 0.709 |
| DIPIRYSITGV [CDH4_Y205] | 0.822 |
| RLLVVYPSTQR [HBB_Y36_W38S] | 1.19 |
| VIDGKYAFKPK [GTF2E2_Y137] | 0.413 |
| TNFRLYLRSLE [MTM1_Y71_YF] | 1.37 |
| AGIENYKSRFG [NKD2_Y256_T257K] | 0.578 |
| LNRAGYCDALE [MTUS1_Y151_C148R] | 1.06 |
| EVESPYEVHDY [GIGYF2_Y1168] | 1.66 |
| IEKLTYIDKWF [CPS1_Y872] | 0.896 |
| SSTASYFEAPG [RFX2_Y108] | 0.789 |
| FVFSFYHAFSG [ACTN4_Y265_S262F_YF] | 0.963 |
| QYNPEYVQQAS [LRRC7_Y1058_H1054Y] | 1.16 |

* * *

# System: AncSZ
# measurementDescription: phosphorylation enrichment, bacterial display (enrichment ratio); higher = better substrate or ligand; peptides without Tyr show the background
outcomeMeasure: phosphorylation enrichment

| sequenceEntry | numericReadout |
| --- | --- |
| NKVKFYIPFMN [NCR1_Y84_D87Y_YF] | 0.897 |
| FVSIVYNDSGE [TSC2_Y1650] | 0.951 |
| SIKDKYVTALY [KCNH2_Y611] | 0.639 |
| TVLGEYALPKG [CYP24A1_Y407] | 1.15 |
| IVAREYFSKAD [CAMK2B_Y107_E110K_YF] | 0.627 |
| SAEKAYHEQLS [TUBA1A_Y282] | 0.558 |
| PSAELYSNALP [PDGFRB_Y716] | 1.55 |
| RLLRGHDQSAF [HLA-C_Y137_Y137H_YF] | 0.79 |
| DRLAVCIDRVR [LMNA_Y45_Y45C] | 0.942 |
| LENSTYQFICV [CRB1_Y760_R764C_YF] | 2.12 |
| QDRTYYERVRT [SPEN_Y633_S635R] | 0.947 |
| RTVPLYESLRK [DDB1_Y718_P721L] | 0.668 |
| HAVYVYDICHV [TWNK_Y508] | 1.68 |
| GRRNTYYASIA [ACADM_Y352] | 0.653 |
